B1: KCNAB2 (parent)
chain: YVDVVFANRPDPNTPMEETVRAMT

variants of: B1; test: protein stability index of a GFP-peptide fusion (GPS, HEK-293T) (PSI 1-6); higher = more stable; details: c terminus: a fixed tail appended;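 further: lentivirally expressed fusions sorted by FACS into six bins by GFP to DsRed ratio, PSI derived from sequencing read proportions per bin multiplied by bin number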
readout type: protein stability index

> print(dat)
                     residue.string  experimental.value
 1   YVDVVFARRPDPNTPMEETVRAMT [N8R]                 2.3
 2  YVDVVFANRPDPNTPMEEFVRAMT [T19F]                1.66
 3  YVDVVFANRNDPNTPMEETVRAMT [P10N]                2.06
 4  YVDVVFANRPDPNTPMAETVRAMT [E17A]                1.86
 5   YVDVVFANGPDPNTPMEETVRAMT [R9G]                2.17
 6  YVDVVFANRPDPNTPMEETVRAHT [M23H]                1.66
 7  YVDVVFANRKDPNTPMEETVRAMT [P10K]                2.27
 8  YVDVVFANRPDPNTPAEETVRAMT [M16A]                 1.8
 9  YVDVVFANRPDPNTPMEECVRAMT [T19C]                1.46
10  YVDVVFANRPDINTPMEETVRAMT [P12I]                1.83
11  YVDVVFANRPDPMTPMEETVRAMT [N13M]                1.98
12   YWDVVFANRPDPNTPMEETVRAMT [V2W]                 2.5
13   YVDVVLANRPDPNTPMEETVRAMT [F6L]                2.15
14   YVDVAFANRPDPNTPMEETVRAMT [V5A]                2.29
15  YVDVVFANRPDPNTPREETVRAMT [M16R]                2.54
16  YVDVVFANRPDPNVPMEETVRAMT [T14V]                1.56
17   YVDPVFANRPDPNTPMEETVRAMT [V4P]                1.87
18  YVDVVFANRPDPNTPMEETARAMT [V20A]                1.82
19  YVDVVFANRPDPNTPQEETVRAMT [M16Q]                2.27
20   YRDVVFANRPDPNTPMEETVRAMT [V2R]                4.13
21  YVDVVFANRPDPSTPMEETVRAMT [N13S]                2.34
22   YIDVVFANRPDPNTPMEETVRAMT [V2I]                2.07
23  YVDVVFANRPDPNTPMEETVRFMT [A22F]                2.28
24  YVDVVFANRPDPNTPMEETVRKMT [A22K]                2.08
25  YVDVVFANRPDPNTPMEETERAMT [V20E]                1.76
26  YVDVVFANRPDENTPMEETVRAMT [P12E]                1.65
27  YVDVVFANRPDPNTPFEETVRAMT [M16F]                1.77
28   YVDVVEANRPDPNTPMEETVRAMT [F6E]                3.63
29  YVDVVFANRPDPNTPMEETVYAMT [R21Y]                1.87
30   YVDVVFAPRPDPNTPMEETVRAMT [N8P]                1.82
31  YVDVVFANRPDPNTPMEETCRAMT [V20C]                1.99
32  YVDVVFANRPDPNTPMEETVRALT [M23L]                2.57
